System: P. aeruginosa
Non-standard residues stand in square brackets, D forms with d. Residues, ends and D or L forms follow the SMILES beside them. dDab = NCC[C@@H](N)C(=O)O; Orn = NCCC[C@H](N)C(=O)O; Dab = NCC[C@H](N)C(=O)O
Quantity Name: Average MIC
Answer format reminder: number followed by unit.

Compound	Measured Result
CC[C@H](C)[C@@H]1NC(=O)[C@H](Cc2c[nH]c3ccccc23)NC(=O)[C@H](CCC(=O)O)NC(=O)[C@@H]2CCCN2C(=O)[C@H]2CCCN2C(=O)[C@H](CCN)NC(=O)[C@H](C)NC(=O)[C@H](CCN)NC(=O)[C@H](CCN)NC(=O)[C@H](Cc2c[nH]c3ccccc23)NC(=O)[C@H](CCN)NC(=O)[C@@H](CCN)NC(=O)[C@H](CCCN)NC(=O)[C@H](CCN)NC1=O [Example 47] (cyclo(EWI[Dab][Orn][dDab][Dab]W[Dab][Dab]A[Dab][dP]P))	0.32 µg/mL
CC[C@H](C)[C@@H]1NC(=O)[C@H](Cc2ccc(O)cc2)NC(=O)[C@H]([C@@H](C)O)NC(=O)[C@@H]2CCCN2C(=O)[C@H]2CCCN2C(=O)[C@H](CCN)NC(=O)[C@H](C)NC(=O)[C@H](CCN)NC(=O)[C@H](CCN)NC(=O)[C@H](Cc2c[nH]c3ccccc23)NC(=O)[C@H](CCN)NC(=O)[C@H](CCN)NC(=O)[C@H](CCCCN)NC(=O)[C@H](CCN)NC1=O [Example 19] (cyclo(TYI[Dab]K[Dab][Dab]W[Dab][Dab]A[Dab][dP]P))	0.06 µg/mL

Please give the measured Average MIC for this compound: CC[C@H](C)[C@@H]1NC(=O)[C@H](Cc2c[nH]c3ccccc23)NC(=O)[C@H]([C@@H](C)O)NC(=O)[C@@H]2CCCN2C(=O)[C@H]2CCCN2C(=O)[C@H](CCN)NC(=O)[C@H](CC(N)=O)NC(=O)[C@H](CCN)NC(=O)[C@H](CCN)NC(=O)[C@H](Cc2c[nH]c3ccccc23)NC(=O)[C@H](CCN)NC(=O)[C@H](CCN)NC(=O)[C@H](CCCCN)NC(=O)[C@H](CCN)NC1=O [Example 38] (cyclo(TWI[Dab]K[Dab][Dab]W[Dab][Dab]N[Dab][dP]P))
0.35 µg/mL

###

Reported MIC P. aeruginosa IMP1 Livermore 3140 by item:
Tested on: Pseudomonas aeruginosa IMP 1 Livermore 3140
Assay type: cell-based
Settings: IMP 1 Livermore 3140
Non-standard residues stand in square brackets, D forms with d. Residues, ends and D or L forms follow the SMILES beside them. dDab = NCC[C@@H](N)C(=O)O; Dab = NCC[C@H](N)C(=O)O
Use µg/mL as the unit, but write only the number.

Molecule	Measured Result
CC[C@H](C)[C@@H]1NC(=O)[C@H](Cc2ccc(O)cc2)NC(=O)[C@H](CC(=O)O)NC(=O)[C@@H]2CCCN2C(=O)[C@H]2CCCN2C(=O)[C@H](CCN)NC(=O)[C@H](C)NC(=O)[C@H](CCN)NC(=O)[C@H](CCN)NC(=O)[C@H](Cc2c[nH]c3ccccc23)NC(=O)[C@H](CCN)NC(=O)[C@@H](CCN)NC(=O)[C@H](CCCCN)NC(=O)[C@H](CCN)NC1=O [Example 42] (cyclo(DYI[Dab]K[dDab][Dab]W[Dab][Dab]A[Dab][dP]P))	0.50

Value lookup for MIC P. aeruginosa IMP1 Livermore 3140; key = CC[C@H](C)[C@@H]1NC(=O)[C@H](Cc2c[nH]c3ccccc23)NC(=O)[C@H]([C@@H](C)O)NC(=O)[C@@H]2CCCN2C(=O)[C@H]2CCCN2C(=O)[C@H](CCN)NC(=O)[C@H]([C@@H](C)CC)NC(=O)[C@H](CCN)NC(=O)[C@H](CCN)NC(=O)[C@H](Cc2c[nH]c3ccccc23)NC(=O)[C@H](CCN)NC(=O)[C@H](CCN)NC(=O)[C@H](CCCCN)NC(=O)[C@H](CCN)NC1=O [Example 8] (cyclo(TWI[Dab]K[Dab][Dab]W[Dab][Dab]I[Dab][dP]P))
0.43

###

Test: in vivo
Set-up: species or system CD-1 mice
Conditions: mouse, iv, 1 mg/kg, Cmax
Non-standard residues stand in square brackets, D forms with d. Residues, ends and D or L forms follow the SMILES beside them. Dab = NCC[C@H](N)C(=O)O
Quantity Name: Cmax (ng/mL)
Only the number, expressed in ng/mL, is required.

Recorded Cmax of CC[C@H](C)[C@@H]1NC(=O)[C@H](Cc2c[nH]c3ccccc23)NC(=O)[C@H]([C@@H](C)O)NC(=O)[C@@H]2CCCN2C(=O)[C@H]2CCCN2C(=O)[C@H](CCN)NC(=O)[C@H](C)NC(=O)[C@H](CCN)NC(=O)[C@H](CCN)NC(=O)[C@H](Cc2c[nH]c3ccccc23)NC(=O)[C@H](CCN)NC(=O)[C@H](CCN)NC(=O)[C@H](CCCCN)NC(=O)[C@H](CCN)NC1=O [Example 1] (cyclo(TWI[Dab]K[Dab][Dab]W[Dab][Dab]A[Dab][dP]P)) , please.
1270

###

Tested on: human red blood cells (hRBC)
Assay: Hemolysis
Type: cell-based
Conditions: 100
Non-standard residues stand in square brackets, D forms with d. Residues, ends and D or L forms follow the SMILES beside them. Cit = NC(=O)NCCC[C@H](N)C(=O)O; Dab = NCC[C@H](N)C(=O)O
Quantity Name: Hemolysis at 100 μg/ml (%)
Kindly answer with a numeric value in %, unit omitted.

Please look up its Hemolysis at 100 μg/ml: CC[C@H](C)[C@@H]1NC(=O)[C@H](Cc2c[nH]c3ccccc23)NC(=O)[C@H](CCCNC(N)=O)NC(=O)[C@@H]2CCCN2C(=O)[C@H]2CCCN2C(=O)[C@H](CCN)NC(=O)[C@H](C)NC(=O)[C@H](CCN)NC(=O)[C@H](CCN)NC(=O)[C@H](Cc2c[nH]c3ccccc23)NC(=O)[C@H](CCN)NC(=O)[C@H](CCN)NC(=O)[C@H](CCCCN)NC(=O)[C@H](CCN)NC1=O [Example 18] (cyclo([Cit]WI[Dab]K[Dab][Dab]W[Dab][Dab]A[Dab][dP]P))
0.4

###

Assay: Plasma stability, rat plasma
Type: in vitro ADME
Non-standard residues stand in square brackets, D forms with d. Residues, ends and D or L forms follow the SMILES beside them. Dab = NCC[C@H](N)C(=O)O
Quantity Name: Stability rat Plasma t1/2
Respond with the figure and its unit, in that order.

Which Stability rat Plasma t1/2 is reported for this molecule? CC(C)[C@@H]1NC(=O)[C@H](Cc2c[nH]c3ccccc23)NC(=O)[C@H]([C@@H](C)O)NC(=O)[C@@H]2CCCN2C(=O)[C@H]2CCCN2C(=O)[C@H](CCN)NC(=O)[C@H](C)NC(=O)[C@H](CCN)NC(=O)[C@H](CCN)NC(=O)[C@H](Cc2c[nH]c3ccccc23)NC(=O)[C@H](CCN)NC(=O)[C@H](CCN)NC(=O)[C@H](CCCCN)NC(=O)[C@H](CCN)NC1=O [Example 32] (cyclo(TWV[Dab]K[Dab][Dab]W[Dab][Dab]A[Dab][dP]P))
5 h

###

Assay: Plasma stability, rat plasma
Format: in vitro ADME
Non-standard residues stand in square brackets, D forms with d. Residues, ends and D or L forms follow the SMILES beside them. Dab = NCC[C@H](N)C(=O)O; Abu = CC[C@H](N)C(=O)O
Listed next: entries and their corresponding Stability rat Plasma t1/2.
Number in h, nothing else.

Compound	Measured Result
CC[C@H](C)[C@@H]1NC(=O)[C@H](Cc2c[nH]c3ccccc23)NC(=O)[C@H]([C@@H](C)O)NC(=O)[C@@H]2CCCN2C(=O)[C@H]2CCCN2C(=O)[C@H](CCN)NC(=O)[C@H]([C@@H](C)O)NC(=O)[C@H](CCN)NC(=O)[C@H](CCN)NC(=O)[C@H](Cc2c[nH]c3ccccc23)NC(=O)[C@H](CCN)NC(=O)[C@H](CCN)NC(=O)[C@H](CCCCN)NC(=O)[C@H](CCN)NC1=O [Example 16] (cyclo(TWI[Dab]K[Dab][Dab]W[Dab][Dab]T[Dab][dP]P))	5

Now for another entry.
Please give the measured Stability rat Plasma t1/2 for this compound: CC[C@@H]1NC(=O)[C@H](CCN)NC(=O)[C@H](CCN)NC(=O)[C@H](Cc2c[nH]c3ccccc23)NC(=O)[C@H](CCN)NC(=O)[C@H](CCN)NC(=O)[C@H](CCCCN)NC(=O)[C@H](CCN)NC(=O)[C@H]([C@@H](C)CC)NC(=O)[C@H](Cc2c[nH]c3ccccc23)NC(=O)[C@H]([C@@H](C)O)NC(=O)[C@@H]2CCCN2C(=O)[C@H]2CCCN2C(=O)[C@H](CCN)NC1=O [Example 6] (cyclo(TWI[Dab]K[Dab][Dab]W[Dab][Dab][Abu][Dab][dP]P))
5
